Target: Taq DNA polymerase K540C/H784C (UniProt P19821 P19821:1-832, K540C,H784C)
Sequence (P19821 whole entry K540C/H784C, one chain of several): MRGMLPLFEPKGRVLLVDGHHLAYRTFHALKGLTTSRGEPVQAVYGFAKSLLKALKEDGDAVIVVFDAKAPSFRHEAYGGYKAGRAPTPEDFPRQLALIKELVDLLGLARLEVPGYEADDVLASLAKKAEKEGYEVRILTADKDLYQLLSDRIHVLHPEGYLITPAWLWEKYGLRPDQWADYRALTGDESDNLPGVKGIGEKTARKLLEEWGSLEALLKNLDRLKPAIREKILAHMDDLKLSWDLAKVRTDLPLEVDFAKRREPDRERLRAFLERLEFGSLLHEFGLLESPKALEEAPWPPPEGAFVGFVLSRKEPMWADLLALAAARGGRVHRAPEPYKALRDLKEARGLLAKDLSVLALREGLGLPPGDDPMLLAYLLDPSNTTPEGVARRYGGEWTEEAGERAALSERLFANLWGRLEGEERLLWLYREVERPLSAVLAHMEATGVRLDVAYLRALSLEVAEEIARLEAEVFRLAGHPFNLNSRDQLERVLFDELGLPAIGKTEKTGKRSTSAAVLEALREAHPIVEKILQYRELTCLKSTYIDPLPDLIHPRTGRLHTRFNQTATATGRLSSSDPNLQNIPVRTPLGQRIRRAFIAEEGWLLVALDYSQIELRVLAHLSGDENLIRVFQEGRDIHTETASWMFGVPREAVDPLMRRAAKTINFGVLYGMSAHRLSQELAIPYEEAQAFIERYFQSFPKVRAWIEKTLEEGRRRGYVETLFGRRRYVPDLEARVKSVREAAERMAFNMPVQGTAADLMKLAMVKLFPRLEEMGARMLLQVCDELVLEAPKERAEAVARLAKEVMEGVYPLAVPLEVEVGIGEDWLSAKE
Assay: EMSA; 1x TAE with 2 mM EDTA, pH 8.3, 10% glycerol
Settings: tags: Fermentas; label: 5'-33P on 24 nt strand; 24 nt primer annealed to 44 nt template, 20 nt 5' template overhang
ASSAY READOUT: Kd (nM)
Provide the reading as a plain figure in nM.

-- ask GET /values?readout=Kd&item= 24/44 nt template-primer duplex (dsDNA) DNA 1: TTTTAGCCGCTAGAGTCGACCTGC DNA 2: GGAGACAAGCTTGTATGCCTGCAGGTCGACTCTAGCGGCTAAAA
-- reply 25
